Tested on: Vero E6 infected with SARS-CoV-2
Test: SARS-CoV-2 infection rate relative to infected DMSO; higher = more infection, active = 60 or less
Settings: 24 h
measure: SARS-CoV-2 infection rate (%)
Dear colleague, please return just the value in %, with no unit written.

Field request: SARS-CoV-2 infection rate | item: CCCCC[C@H](O)/C=C/[C@H]1[C@H](O)CC(=O)[C@@H]1CCCCCCC(=O)O [alprostadil] (10 µM)
90.5

Entry under review: CN(C)[C@@H]1CCc2[nH]c3ccc(NC(=O)c4ccc(F)cc4)cc3c2C1 (10 µM) . Reported SARS-CoV-2 infection rate?
70.5

SARS-CoV-2 infection rate lookup needed for O=C1NCN(c2ccccc2)C12CCN(CC1COc3ccccc3O1)CC2 (centres undefined) [spiroxatrine] (10 µM) , thanks.
114

So what's the measured SARS-CoV-2 infection rate for this one? CC(C)C1=C2[C@H]3CC[C@@H]4[C@@]5(C)CC[C@H](OC(=O)CC(C)(C)C(=O)O)C(C)(C)[C@@H]5CC[C@@]4(C)[C@]3(C)CC[C@@]2([C@@H](O)CN(CCN(C)C)Cc2ccc(Cl)cc2)CC1=O (10 µM)
96

Return reported SARS-CoV-2 infection rate; argument: C=CC1=C(C)C2=CC3=NC(=C(CC(=O)O)C4=NC(=C(C)C4=C(O)O)C=c4[nH]c(c(C)c4CC)=CC1=N2)C(CCC(=O)O)C3C (centres undefined) [chlorophyllin] (10 µM)
94

What value of measured SARS-CoV-2 infection rate is listed for CS(=O)(=O)CCNCc1nc(-c2ccc3ncnc(Nc4ccc(OCc5cccc(F)c5)c(Cl)c4)c3c2)cs1 (10 µM) ?
116

Given the compound CCn1cc(C(=O)O)c(=O)c2cc(F)c(N3CCNCC3)cc21 [norfloxacin] (10 µM) , what is its reported SARS-CoV-2 infection rate?
86

SARS-CoV-2 infection rate lookup needed for Cc1ccc([N+](=O)[O-])cc1S(=O)(=O)N(C)C (10 µM) , thanks.
97

Any idea what its SARS-CoV-2 infection rate is? The compound is CCN(CC)CCCC(C)Nc1c2ccc(Cl)cc2nc2ccc(OC)cc12 (centres undefined) [mepacrine] (0.833333 µM)
55.5

Suppose we examine the compound CC(C)NC[C@@H](C(=O)N1CCN(c2ncnc3c2[C@H](C)C[C@H]3O)CC1)c1ccc(Cl)cc1 (10 µM) ; what SARS-CoV-2 infection rate value has been reported?
96

Look up SARS-CoV-2 infection rate: O=c1c(O)c(-c2ccc(O)cc2)oc2cc(O)cc(O)c12 [kaempferol] (10 µM)
108

Using the record for Ic1cncc(OC[C@@H]2CCN2)c1 (10 µM) , report its SARS-CoV-2 infection rate.
101

Sample Cc1cccc(C(C)c2c[nH]cn2)c1C (centres undefined) [medetomidine] (10 µM) — what was its SARS-CoV-2 infection rate?
102

Would you kindly share the measured SARS-CoV-2 infection rate for CCCc1c(OCCCOc2ccc(OCC(=O)O)cc2)ccc(C(C)=O)c1O (10 µM) ?
106

// lookup SARS-CoV-2 infection rate for CO/N=C1\CN(c2nc3c(cc2F)c(=O)c(C(=O)O)cn3C2CC2)CC1CN (centres undefined) [gemifloxacin] (10 µM)
91.5

So what's the measured SARS-CoV-2 infection rate for this one? CC1=NN=C(c2ccc(N)cc2)c2cc3c(cc2C1)OCO3 (10 µM)
112

Recorded SARS-CoV-2 infection rate for CN(C)/C=N/c1c(I)cc(I)c(CCC(=O)O)c1I [iopodic-acid] (10 µM) , please?
104

# SARS-CoV-2 infection rate lookup, item CS(=O)(=O)c1ccc(Cn2c3c(c4cc(F)cc(F)c42)CCCC3CC(=O)O)cc1 (centres undefined) (10 µM)
90

SARS-CoV-2 infection rate lookup needed for CC(C)CNc1nc(-c2cccc3ncccc23)cn2c(-c3ccc(C(=O)NC4CC4)cc3)cnc12 (10 µM) , thanks.
99.5
